- Assayed target: Low molecular weight phosphotyrosine protein phosphatase (Homo sapiens)
- Method: inhibition of human LMPTP, pNPP readout – biochemical, absorbance, orthogonal assay, SAR follow-up (AID 686963)
- Experimental setup: recombinant LMPTP-A, 50 min
Active and inactive are the calls of the source.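 How the source made its calls: active means compounds blocking the small tyrosine phosphatase LMPTP with an IC50 of 20 micromolar or lower; inactive means the rest.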
Endpoint name: IC50

Some compounds with recorded IC50:
c1ccc(-c2nc(NCCCn3ccnc3)c3ccccc3n2)cc1
inactive
c1ccc(-c2cc(NCCN3CCCCC3)c3ccccc3n2)cc1
4.97 µM
Clc1cccc(Cl)c1Cn1cnc(=NCc2ccco2)c2[nH]cnc21
11.6 µM
c1ccc(-c2cc(N3CCCCC3)c3ccccc3n2)cc1
inactive
Cc1ccc(-c2nc(NCCN3CCOCC3)c3ccccc3n2)cc1
inactive
O=C(OCCNc1nc(-c2ccccc2)nc2ccccc12)c1cccnc1
inactive

Documented IC50 of COc1ccccc1CNc1ncnc2ccsc12 : > 80 µM (inactive)

Summary for this compound, CC(C)OCCCNc1nc(-c2ccccc2)nc2ccccc12 : IC50 is inactive

Notebook: Cc1c(CCC(=O)O)c(=O)oc2c(C)c(OCc3ccccc3Cl)ccc12 , IC50 read as 17.5 µM

Recorded IC50 (compound Fc1ccccc1-c1nc(NC2CCCC2)c2ccccc2n1 ): inactive

IC50 reported for this compound Cc1ccc(-c2nc(NCc3cccnc3)c3ccccc3n2)cc1 : inactive

The measured IC50 associated with Nc1nc(N)c(Cc2ccc(Cl)cc2Cl)c(N)n1 reads 13.5 µM

# compound Cc1cccc(-c2nc(NCCCN3CCOCC3)c3ccccc3n2)c1 ; its IC50 = inactive

Briefly, IC50 measured for O=C(OCCNc1nc(-c2ccccc2)nc2ccccc12)c1ccncc1 : inactive

Data point: CCc1nc(N)nc(N)c1-c1ccc(Cl)cc1 ; IC50 = inactive

The measured IC50 associated with c1ccc(-c2nc(NCc3cccnc3)c3ccccc3n2)cc1 reads inactive

Recorded IC50 (compound Fc1ccccc1-c1nc(NCCCN2CCOCC2)c2ccccc2n1 ): inactive
